Tested on: NCI-H322M multicellular tumor spheroids, viability (% test/control)
protocol.description: Anticancer human tumor NCI-H322M cell line growth inhibition;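 also: spheroids exposed to compound for seven days before readout; 100% = DMSO vehicle control wells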
measurement.conditions: second compound 0.00949 µM; first compound 0.949 µM; stronger effect = lower value
Parameter viability, T/C: see the listing below.

- compound: "Cn1ncnc1[C@H]1c2n[nH]c(=O)c3cc(F)cc(c23)N[C@@H]1c1ccc(F)cc1 + CC[C@@]1(O)C(=O)OCc2c1cc1n(c2=O)Cc2cc3c(CN(C)C)c(O)ccc3nc2-1"
  viability, T/C: "69%"
- compound: "Cc1sc2c(c1C)C(c1ccc(Cl)cc1)=NC(CC(=O)Nc1ccc(O)cc1)c1nnc(C)n1-2 (centres undefined) + CC[C@@]1(O)C(=O)OCc2c1cc1n(c2=O)Cc2cc3c(CN(C)C)c(O)ccc3nc2-1"
  viability, T/C: "79%"
- compound: "O=C(c1cc(Cc2n[nH]c(=O)c3ccccc23)ccc1F)N1CCN(C(=O)C2CC2)CC1 + CC[C@@]1(O)C(=O)OCc2c1cc1n(c2=O)Cc2cc3c(CN(C)C)c(O)ccc3nc2-1"
  viability, T/C: "71.6%"
- compound: "CNCc1ccc(-c2cc(-c3nc(-c4ccc(S(=O)(=O)C(C)C)cc4)cnc3N)on2)cc1 + CC[C@@]1(O)C(=O)OCc2c1cc1n(c2=O)Cc2cc3c(CN(C)C)c(O)ccc3nc2-1"
  viability, T/C: "81.3%"
